Target: hER-α (Homo sapiens, UniProt P03372)
Construct: expressed in transfected cells; host or cells: HELN (HeLa carrying a stably transfected estrogen-responsive luciferase reporter)
Sequence (P03372 whole entry): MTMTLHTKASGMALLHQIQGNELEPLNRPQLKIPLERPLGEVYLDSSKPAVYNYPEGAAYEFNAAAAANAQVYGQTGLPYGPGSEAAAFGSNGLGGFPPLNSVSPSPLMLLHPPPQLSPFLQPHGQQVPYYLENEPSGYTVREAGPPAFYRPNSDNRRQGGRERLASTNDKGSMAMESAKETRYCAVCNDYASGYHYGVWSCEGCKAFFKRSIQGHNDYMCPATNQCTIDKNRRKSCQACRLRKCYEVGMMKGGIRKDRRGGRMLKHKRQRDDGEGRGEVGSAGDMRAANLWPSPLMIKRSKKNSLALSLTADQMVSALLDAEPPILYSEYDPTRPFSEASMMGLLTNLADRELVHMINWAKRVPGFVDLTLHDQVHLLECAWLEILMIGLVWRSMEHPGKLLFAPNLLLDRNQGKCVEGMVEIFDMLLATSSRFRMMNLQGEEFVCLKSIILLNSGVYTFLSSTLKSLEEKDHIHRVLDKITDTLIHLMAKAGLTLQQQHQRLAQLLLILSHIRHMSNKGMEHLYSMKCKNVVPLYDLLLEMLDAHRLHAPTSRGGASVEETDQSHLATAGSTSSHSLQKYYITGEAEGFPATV
Assay: cell-based
Assay type: cell-based
reported_property: pEC50
Here pEC50 is given on a logarithmic scale as minus log10 of the concentration in mol/L.

query: Form: Entry = C[C@H]1CCCC(=O)CCC/C=C/c2cc(O)cc(O)c2C(=O)O1 [ZEN] | System = hER-α (Homo sapiens, UniProt P03372) | pEC50 = ____
result: 7.93
